Every entry's value here was drawn from patent US20260125400A1.

Biological target: TYK2 (Homo sapiens)
Construct: Degradation of TYK2 in cells was quantitatively measured using Meso Scale Discovery (MSD) technology; endogenous in cells; host or cells: OCI-LY10
Sequence (P29597 whole entry): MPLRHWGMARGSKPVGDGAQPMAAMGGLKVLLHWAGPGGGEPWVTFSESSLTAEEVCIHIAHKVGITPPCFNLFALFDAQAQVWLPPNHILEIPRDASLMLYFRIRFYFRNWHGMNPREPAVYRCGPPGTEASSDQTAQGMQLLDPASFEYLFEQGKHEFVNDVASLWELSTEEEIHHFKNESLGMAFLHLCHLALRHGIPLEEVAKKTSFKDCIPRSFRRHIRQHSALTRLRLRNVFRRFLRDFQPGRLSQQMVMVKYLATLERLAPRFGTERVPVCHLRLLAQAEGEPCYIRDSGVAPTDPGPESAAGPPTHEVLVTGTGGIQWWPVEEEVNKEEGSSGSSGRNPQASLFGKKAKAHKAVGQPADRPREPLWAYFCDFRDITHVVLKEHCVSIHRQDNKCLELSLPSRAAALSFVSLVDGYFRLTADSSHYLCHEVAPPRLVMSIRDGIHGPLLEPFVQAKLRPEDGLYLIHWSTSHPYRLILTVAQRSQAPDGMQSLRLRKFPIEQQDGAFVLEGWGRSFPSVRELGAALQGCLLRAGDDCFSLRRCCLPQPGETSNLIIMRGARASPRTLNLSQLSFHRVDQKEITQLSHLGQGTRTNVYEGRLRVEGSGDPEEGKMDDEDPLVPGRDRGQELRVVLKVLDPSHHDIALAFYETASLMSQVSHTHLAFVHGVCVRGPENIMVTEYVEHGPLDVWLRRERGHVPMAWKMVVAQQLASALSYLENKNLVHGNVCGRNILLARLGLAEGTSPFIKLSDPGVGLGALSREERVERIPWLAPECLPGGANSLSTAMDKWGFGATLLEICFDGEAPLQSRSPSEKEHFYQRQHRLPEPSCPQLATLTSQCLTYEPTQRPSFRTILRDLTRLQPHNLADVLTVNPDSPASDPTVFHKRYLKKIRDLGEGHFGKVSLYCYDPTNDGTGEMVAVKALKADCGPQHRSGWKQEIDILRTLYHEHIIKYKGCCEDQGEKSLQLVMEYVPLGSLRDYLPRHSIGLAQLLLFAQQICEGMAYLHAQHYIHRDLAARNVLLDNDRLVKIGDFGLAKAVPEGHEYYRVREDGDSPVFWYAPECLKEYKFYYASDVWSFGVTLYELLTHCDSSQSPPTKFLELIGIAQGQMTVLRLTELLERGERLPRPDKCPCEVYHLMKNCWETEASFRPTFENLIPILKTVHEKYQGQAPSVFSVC
Test: TYK2 MSD degradation in OCI-LY10 cells
Assay type: cell-based
Conditions: TYK2 degradation in OCI-LY10 cells, 4 to 24 hours incubation, read-out: TYK2 MSD OCI-LY10 Rel-DC50
Description: Example 7. TYK2 MSD Degradation Degradation of TYK2 in cells was quantitatively measured using Meso Scale Discovery (MSD) technology. OCI-LY10 cells were seeded in 96-well plates with a density of 0.4 million cells per well in 100 μl fresh media. […] The assay plates were then incubated at room temperature for 1 hour, washed 3 times with 150 μl/well TB ST buffer, and 150 μl/well MSD reading buffer (MSD, R92TC-2) were added. The plates were then analyzed by an MSD reader. […]
quantity-name: DC50

Give TYK2 (Homo sapiens) DC50 for the following molecule: CNc1cc(N2CCc3c(CN4CCC(N5CCC6(CCN(C(=O)c7cc(N8CCC(=O)NC8=O)c(C)cc7F)CC6)CC5)C(F)(F)C4)cccc32)nn2c(C(=O)N[C@@H]3C[C@@H]3F)cnc12 (stereo partly shown)
< 1 nM

Give TYK2 (Homo sapiens) DC50 for the following molecule: CNc1cc(N2CCc3c(-c4ccc(CN5CCC6(CCN(C(=O)c7cc(C)c(C)c(N8CCC(=O)NC8=O)c7)CC6)C(F)(F)C5)cn4)cccc32)nn2c(C(=O)N[C@@H]3C[C@@H]3F)cnc12
< 1 nM

Give TYK2 (Homo sapiens) DC50 for the following molecule: CNc1cc(N2CCc3c(-c4ccc(CN5CCC(N6CCN(CCc7ccc(Cl)c(C8CCC(=O)NC8=O)c7)CC6)C(F)(F)C5)cn4)cccc32)nn2c(C(=O)NC3CC3F)cnc12 (stereo not shown)
< 10 nM

Give TYK2 (Homo sapiens) DC50 for the following molecule: CNc1cc(N2CCc3c(-c4ccc(CN5CC6(CCN(C(=O)c7ccc(Cl)c(N8CCC(=O)NC8=O)c7)CC6)C5)cc4)cccc32)nn2c(C(=O)N[C@@H]3C[C@@H]3F)cnc12
< 10 nM

Give TYK2 (Homo sapiens) DC50 for the following molecule: CNc1cc(N2CCc3c(-c4ccc(OC5CC6(CCN(C(=O)c7cc(C)c(Cl)c(N8CCC(=O)NC8=O)c7)CC6)C5)cn4)cccc32)nn2c(C(=O)N[C@@H]3C[C@@H]3F)cnc12
< 10 nM

Give TYK2 (Homo sapiens) DC50 for the following molecule: CNc1cc(N2CCc3c(C#CCN4CCN(C5CCN(C(=O)c6ccc(Cl)c(N7CCC(=O)NC7=O)c6)CC5(F)F)CC4)cccc32)nn2c(C(=O)NC3CC3F)cnc12 (stereo not shown)
< 1 nM

Give TYK2 (Homo sapiens) DC50 for the following molecule: CNc1cc(N2CCc3c(CN4CCC(N5CC6(CCN(C(=O)c7cc(C)c(Cl)c(N8CCC(=O)NC8=O)c7)CC6)C5)C(F)(F)C4)cccc32)nn2c(C(=O)N[C@@H]3CC[C@H]3OC)cnc12 (stereo partly shown)
< 1 nM

Give TYK2 (Homo sapiens) DC50 for the following molecule: CNc1cc(N2CCc3c(-c4ccc(CN5CCC6(CC5)CCN(C(=O)c5ccc(Cl)c(C7CCC(=O)NC7=O)c5)CC6)cn4)cccc32)nn2c(C(=O)N[C@@H]3C[C@@H]3F)cnc12 (stereo partly shown)
< 1 nM

Give TYK2 (Homo sapiens) DC50 for the following molecule: CNc1cc(N2CCc3c(-c4ccc(CN5CCC6(CCN(C(=O)c7ccc(C(F)(F)F)c(N8CCC(=O)NC8=O)c7)CC6)C(F)(F)C5)cn4)cccc32)nn2c(C(=O)N[C@@H]3C[C@@H]3F)cnc12
< 10 nM

Give TYK2 (Homo sapiens) DC50 for the following molecule: CNc1cc(N2CCc3c(-c4ccc(CN5CCC(N6CCC(Oc7ccc(Cl)c(N8CCC(=O)NC8=O)c7)CC6)C(F)(F)C5)cn4)cccc32)nn2c(C(=O)N[C@@H]3C[C@@H]3F)cnc12 (stereo partly shown)
> 100 nM
